Test system: K562
Assay: NCI tumour cell line growth inhibition, 48 h
Active and inactive are the calls of the source. Cut-off read from the data, not from the text of the source: active = GI50 up to about 1.1 µM and inactive = higher.
Outcome codes: active, inactive

                                    molecule  assignedcategory
 0  Cc1ccc(-c2n[nH]c(=O)n2/N=C\c2ccc([N+](=O)[O-])cc2)cc1          inactive
 1                    CO/N=[N+](\[O-])NC(C)C          inactive
 2  S=C(N/N=C(/c1ccccc1)c1ccccn1)N(Cc1ccccn1)Cc1ccccn1            active
 3  O=C(O)c1cc(=O)c2c(OCC(O)COc3cccc4oc(C(=O)O)cc(=O)c34)cccc2o1          inactive
 4  C#CCN(C(=O)C(F)(F)F)C(/C=C\C(=O)OC)(C(=O)OCC)C(=O)OCC          inactive
 5     CN(C)CCCNc1ccnc2cc([N+](=O)[O-])ccc12          inactive
 6  CCC(=C/[C@H](C)C/C=C/C(C)=C/[C@@H](C)C(=O)[C@@H](C)[C@H](O)[C@@H](C)CC)/C=C/[C@H]1CC=CC(=O)O1            active
 7  CC(O)C(N/C=C1/N=C(c2ccccc2)OC1=O)C(=O)O (centres undefined)          inactive
 8           O=C(NCCO)c1c(O)c2ccccc2[nH]c1=O          inactive
 9  CC(=O)O[C@H]1[C@H](OC(C)=O)[C@@H](CN=[N+]=[N-])OCO[C@@H]1CN=[N+]=[N-]          inactive
10  CC12CCCC3(CC(=O)C(C)(C)C3C(=O)C1)C2 (centres undefined)          inactive
11  COc1cc2c(c(OC)c1OC)-c1ccc(OC)c(=O)cc1C(NC(=O)c1ccc(N=[N+]=[N-])cc1)CC2 (centres undefined)            active
12  CC1C(c2ccccc2)NC(c2ccccc2)CC1(N)C#N (centres undefined)          inactive
13  CN(C)C(=S)/N=c1\ss/c(=N\C(=S)N(C)C)n1-c1ccc(Cl)c(Cl)c1          inactive
14  CCOC(=O)Cc1cnc(NC(NC(=O)CC)(C(F)(F)F)C(F)(F)F)s1          inactive
15  N#CC(c1ccnc(Cl)n1)c1nc2ccccc2s1 (centres undefined)          inactive
16  O=C1/C(=C\c2ccccc2)C2/C(=C\c3ccccc3)C(=O)/C(=C\c3ccccc3)C2/C1=C\c1ccccc1 (centres undefined)            active
17  COc1ccc(-c2cc(C3CC3)nc(SCC(=O)O)c2C#N)cc1          inactive
18      C=CCc1c(C)nc(C)nc1N/N=C/C=C/c1ccccc1          inactive
19  O=C(NCCCN(CCCCN(CCCNC(=O)C(F)(F)F)Cc1ccc2ccccc2c1)Cc1ccc2ccccc2c1)C(F)(F)F          inactive
20  N#CC(c1ccccc1)N(CCc1ccccc1)C(=O)Oc1ccccc1 (centres undefined)          inactive
21  COc1cc2c(c(OC)c1)C1(CC(CC#N)C2)SCCS1 (centres undefined)          inactive
22  NC(=S)Nc1c(S(N)(=O)=O)cc(S(N)(=O)=O)c(Cl)c1Cl          inactive
23  CSc1nc(NC2OC(COC(C)=O)C(OC(C)=O)C(OC(C)=O)C2OC(C)=O)c(-c2csc(N)n2)c(=O)n1C (centres undefined)          inactive
24  CSc1nc(NC2OCC(OC(C)=O)C(OC(C)=O)C2OC(C)=O)c(/N=C(\C)C(C)=O)c(=O)[nH]1 (centres undefined)          inactive
25  COc1ccc(C2CC(=O)c3c(O)cc(O)cc3O2)cc1O (centres undefined)          inactive
26       COc1ccc2oc(OC)c(CC=C(C)C)c(=O)c2c1C          inactive
27  CC[C@@]1(O)C(=O)OCc2c1cc1n(c2=O)Cc2c-1nc1ccccc1c2/C=N/NC(=O)C[N+](C)(C)C          inactive
28  C=C(C)C1CC[C@@](C)(O)[C@H](C#N)C1 (some centres undefined)          inactive
29  COc1cc2c(cc1OC)C(C(=O)c1cccc(OC)c1OC)C(=O)N(C)CC2 (centres undefined)          inactive
30  O=C(NC12CC3CC(CC(C3)C1)C2)C(=O)c1c[nH]c2ccc(Br)cc12          inactive
31  COc1nc2sc3c(c2c(=O)n1CCCSSCCCn1c(OC)nc2sc4c(c2c1=O)CCCC4)CCCC3          inactive
32           CCOc1ccc(Nc2nc(N)nc(N)c2N=O)cc1          inactive
33     CCC(=O)N1C(=O)C(CC)(CC)C(=O)N1C(=O)CC          inactive

----------
GI50 by entry:
Tested on: KM12
Assay: NCI tumour cell line growth inhibition, 48 h
The source made the active and inactive calls. No stated cut-off is given here; in the data, active = GI50 up to about 1.1 µM and inactive = higher.
experimentalEndpoint: GI50

>>> df
                                    compound        valuereported
 0  Nc1ncnc2c1ncn2C1CC(OCc2ccccc2[N+](=O)[O-])C(CO)O1 (configuration not stated)     20 µM (inactive)
 1  O=C1Nc2ccc(Br)cc2/C1=N/Nc1ccccc1[N+](=O)[O-]    8.2 µM (inactive)
 2  C=C1CC2[C@H](C)C(=O)CCC2(C)C2=C1C1CCC(C(C)CCC(=C)C(C)C(=O)O)C1(C)CC2=O (some centres not stated)   71.4 µM (inactive)
 3  CC1(C)N=C(c2ccccc2)SC12S[C@@H]1CCCC[C@H]1S2  > 100 µM (inactive)
 4        CCOC(=O)c1cn2c(n1)sc1cc(C)c(C)cc12     15 µM (inactive)
 5     CCC(=O)N1C(=O)C(CC)(CC)C(=O)N1C(=O)CC  > 100 µM (inactive)
 6  NCCCC1NC(=O)/C(=C(O)/C=C/C2CCC[C@@H]2CC2SCCS2)C1=O (some centres not stated)  > 100 µM (inactive)
 7               N=C1C(=N)c2ccccc2-c2ccccc21   1.85 µM (inactive)
 8    O=C1OC(c2ccccc2)=N/C1=C\c1ccc2ccccc2c1  > 100 µM (inactive)
 9  O=C(O)Cn1c(=O)[nH]c(=O)c2c1ncn2Cc1ccccc1  > 100 µM (inactive)
10  COc1ccc(/N=C2\C(=N/c3ccc(OC)cc3)N(c3ccc(N(C)C)cc3)C(=S)N2c2ccc(OC)cc2)cc1  > 100 µM (inactive)
11  NC(=S)Nc1c(S(N)(=O)=O)cc(S(N)(=O)=O)c(Cl)c1Cl  > 100 µM (inactive)

----------
System: EKVX
Assay: NCI tumour cell line growth inhibition, 48 h
Active and inactive are the calls of the source. No stated cut-off is given here; in the data, active = GI50 up to about 1.1 µM and inactive = higher.
experimentalEndpoint: GI50

>>> print(df.to_string())
                                    compound        valuereported
 0      CCSc1n/c(=C\c2ccc(N(C)C)cc2)c2nnnn12  > 100 µM (inactive)
 1  CC[C@]12C=CCN3CC[C@@]4(c5cc(Br)c(OC)cc5N(C)[C@H]4[C@@](O)(C(=O)NN)[C@@H]1O)[C@@H]32   59.4 µM (inactive)
 2               C[C@]12CCC(=O)O[C@H]1CCCCO2  > 100 µM (inactive)
 3              CCOC(=O)CCn1ncc(Cl)c(Cl)c1=O   18.7 µM (inactive)
 4  Cc1ccnc2c1C(=O)C1=C(OC(C)(C)CC1O)C2=O (centres undefined)   5.21 µM (inactive)
 5  C=C(C)C1CC[C@@](C)(O)[C@H](C#N)C1 (some centres undefined)  > 100 µM (inactive)
 6  N#CC(c1ccccc1)N(CCOCCOCCN(C(=O)c1cccc2ccccc12)C(C#N)c1ccccc1)C(=O)c1cccc2ccccc12 (centres undefined)  > 100 µM (inactive)
 7  O=C1C=CC(=O)C(N(CCO)CCO)=C1.O=C1C=CC2(O)OCCN(CCO)C2=C1  > 100 µM (inactive)
 8  CC1(C)N=C(c2ccccc2)SC12S[C@@H]1CCCC[C@H]1S2  > 100 µM (inactive)
 9     Cc1cc(N(C)c2ccccc2)nc(N(C)c2ccccc2)n1   36.1 µM (inactive)
10  Nc1nc(N)c(CCCCc2ccc([N+](=O)[O-])cc2)c(N)n1  > 100 µM (inactive)
11                CCNCCNc1c2ccccc2nc2ccccc12   2.44 µM (inactive)
12           CCCCSC1=N/C(=C\c2ccco2)C(Cl)=N1  > 100 µM (inactive)
13  COc1cc(Nc2cnc3ccc(C(F)(F)F)cc3n2)cc(OC)c1OC  > 100 µM (inactive)
14  C/C(=C\CNc1ncnc2c1ncn2C1CCCCO1)COP(=O)(O)O (centres undefined)  > 100 µM (inactive)
15  COC(=O)CC(C(C(C)=O)C(=O)OCc1ccccc1)N1C(=O)OC(c2ccccc2)C1c1ccccc1 (centres undefined)   64.4 µM (inactive)
16  COc1c(C)c(OC)c2c(c1O)[C@@H]1[C@@H]3Cc4c(OC)c(C)c(OC)c(O)c4[C@H](CNC(=O)c4cnc5ccccc5n4)N3[C@@H](C#N)[C@H](C2)N1C  0.00149 µM (active)
17  CSc1nc(NC2OCC(OC(C)=O)C(OC(C)=O)C2OC(C)=O)c(/N=C(\C)C(C)=O)c(=O)[nH]1 (centres undefined)  > 100 µM (inactive)
18  O=C1/C(=C\c2ccccc2)C2/C(=C\c3ccccc3)C(=O)/C(=C\c3ccccc3)C2/C1=C\c1ccccc1 (centres undefined)   3.89 µM (inactive)
19  N#Cc1c(-c2ccc([N+](=O)[O-])cc2)c(C#N)c(=O)n(NS(=O)(=O)c2ccccc2)c1-c1ccccc1  > 100 µM (inactive)
20  Cc1cc(S(=O)(=O)NC2=Nc3cccc4cccc(c34)N2)c(S)cc1Cl  > 100 µM (inactive)
21  COC(=O)CSc1nnc(-c2ccc(O)c([N+](=O)[O-])c2)[nH]1  > 100 µM (inactive)
22  O=C(Nc1cccc([N+](=O)[O-])c1)C(=O)C(C(=O)c1ccccc1F)C1OC(=O)C2C=CC=CC21 (centres undefined)     41 µM (inactive)
23  CN(C)CCn1c(=O)c2ccc(NCCN3CCNCC3)c3c(=O)c4ccccc4n(c1=O)c23   1.87 µM (inactive)

Recorded values, source ChEMBL document CHEMBL1201862.
